The reader will find reported IC50 values listed item by item below.
# measured-on: human M5 receptors (hM5) (Homo sapiens)
# Sequence (P08912 1-532): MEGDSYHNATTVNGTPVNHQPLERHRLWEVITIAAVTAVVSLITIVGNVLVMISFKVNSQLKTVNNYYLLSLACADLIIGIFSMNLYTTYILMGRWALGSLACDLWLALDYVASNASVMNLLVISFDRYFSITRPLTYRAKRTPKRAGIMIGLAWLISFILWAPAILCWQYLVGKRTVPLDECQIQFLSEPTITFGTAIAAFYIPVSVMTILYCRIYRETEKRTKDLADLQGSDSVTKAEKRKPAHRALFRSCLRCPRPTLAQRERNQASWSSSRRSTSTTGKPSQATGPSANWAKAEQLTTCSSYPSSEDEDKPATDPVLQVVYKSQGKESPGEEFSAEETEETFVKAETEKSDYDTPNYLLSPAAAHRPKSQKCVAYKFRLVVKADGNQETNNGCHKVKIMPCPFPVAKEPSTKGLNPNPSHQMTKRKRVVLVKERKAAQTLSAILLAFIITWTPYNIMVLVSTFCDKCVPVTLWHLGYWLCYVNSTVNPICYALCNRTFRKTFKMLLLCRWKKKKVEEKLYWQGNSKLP
# procedure-text: Cell-based functional calcium mobilization assay of mAChR M5 activity
# measurement-context: CHO cells stably expressing hM5; calcium mobilization, inhibition of EC80 acetylcholine response

compound	measured-on	IC50
Cc1nnc(S(=O)(=O)[C@H]2CC[C@H](c3cn4ncnc4cc3Cl)CC2)o1 [Compound 2]	human M5 receptors (hM5) (Homo sapiens)	532 nM

Return reported IC50; argument: Cc1nnc(S(=O)(=O)[C@H]2CC[C@@H](c3cn4ncnc4cc3C)CC2)o1 [Compound 4] > 10000 nM

Sample Cc1nnc(S(=O)(=O)[C@H]2CC[C@H](c3cn4ncnc4cc3Cl)CC2)n1C [Compound 3] — what was its IC50? 33 nM

Can you look up the measured IC50 of Cc1nnc(S(=O)(=O)[C@H]2CC[C@H](c3cn4ncnc4cc3Cl)CC2)s1 [Compound 1] for me? 185 nM
